These measurements were taken from PubChem BioAssay (NCI).

tested on: NCI-H322M lung; assay: NCI-60 one-dose screen, 48 h (100 = growth as untreated, 0 = no growth, -100 = all killed); conditions: 10 µM unless noted
About 83,000 compounds went through this panel and 20% of them were active in at least one assay; those are over-represented in the sample as a whole.
# growth annotations

Compound: CCCn1cnc2c(c1=N)C(c1ccc(F)cc1)c1sc3c(C)cccc3c1O2 (centres undefined)
System: NCI-H322M lung
growth (%): 49.9
--
Compound: COc1cc2oc(-c3cccc(NC(=O)c4cc(N)ccc4Cl)c3)cc(=O)c2c(OC)c1OC
System: NCI-H322M lung
growth (%): 105
--
Compound: C=CCn1c(SCC(=O)Nc2ccc(C(=O)/C=C/c3ccc(Br)cc3)cc2)nnc1-c1c[nH]c2ccccc12
System: NCI-H322M lung
growth (%): 93.7
--
Compound: COc1ccc(S(=O)(=O)NCCCNc2nccc(-c3cn(C(C)(C)C)nc3-c3ccc(Cl)c(OC)c3)n2)cc1
System: NCI-H322M lung
growth (%): 82.5
--
Compound: CCC(CC)N1C(=O)/C(=c2\sc3n(c2=O)NC2C(N=3)N(CC)C(=O)N2CC)c2ccccc21 (centres undefined)
System: NCI-H322M lung
growth (%): 80.6
--
Compound: CS(=O)(=O)Nc1cc(-c2ccc3ncc(C#N)c(N[C@H](CO)c4ccccc4)c3c2)cnc1Cl
System: NCI-H322M lung
growth (%): 78.3
--
Compound: CN1CCC(n2cc(Nc3ncc4c(=O)n(-c5c(Cl)cccc5Cl)cc(Br)c4n3)cn2)CC1
System: NCI-H322M lung
growth (%): 41.9
--
Compound: O=C(NNc1nc2cc(F)cc(F)c2n2cccc12)c1cnccn1
System: NCI-H322M lung
growth (%): 30.2
--
Compound: COc1cc(Cn2cc3c(c2)-c2onc(CN4CCOCC4)c2CC3)cc(OC)c1OC
System: NCI-H322M lung
growth (%): 100

---

system: HOP-62 NSCLC; assay: NCI-60 one-dose screen, 48 h; settings: 10 µM unless noted
Compounds without any hit were thinned out: in the full panel of roughly 83,000, 20% have a hit. Activity calls are given as the source filed them. How the source made its calls: active means growth percent below 10; inactive means the rest.
Outcomes: 1 (yes) for active, 0 (no) for inactive

Compound: N/C(=N\C(N)=N\c1nc2ccccc2s1)c1cccc(F)c1
Label value: 0 (no)

Compound: CCCn1cnc2c(c1=N)C(c1ccc(F)cc1)c1sc3c(CC)cccc3c1O2 (centres undefined)
Label value: 0 (no)

Compound: O=S(=O)(NCCCNc1nccc(-c2[nH]c(-c3ccccc3)nc2-c2ccc(Cl)c(O)c2)n1)c1ccc(Br)cc1
Label value: 0 (no)

Compound: O=C(/C=C/c1ccc(F)cc1)c1ccc(O)cc1
Label value: 0 (no)

Compound: C=C(C=O)[C@@H]1CC[C@]2(COC(C)=O)CC[C@]3(C)C(CC[C@@H]4[C@@]5(C)CC[C@H](OC(C)=O)C(C)(C)[C@@H]5CC[C@]43C)[C@@H]12 (some centres undefined)
Label value: 0 (no)

Compound: C=CCn1c(SCC(=O)Nc2ccc(C(=O)/C=C/c3cccc([N+](=O)[O-])c3)cc2)nnc1-c1c[nH]c2ccccc12
Label value: 0 (no)

Compound: COc1ccc([C@@H]2c3[nH]c4ccccc4c3C[C@H]3C(=O)N(C4CCN(CC5CCCCC5)CC4)CC(=O)N23)c(OC)c1
Label value: 0 (no)

Compound: C#Cc1nc(C(=O)NCCC(=O)Nc2ccc(NC(=O)c3ccc(/C=C/C(=O)c4nccn4C)cc3)cc2)cs1
Label value: 0 (no)

Compound: Cc1cc2ncc(-c3cc4ccccc4c(N4CCN(C)CC4)n3)nc2cc1C
Label value: 0 (no)

Compound: COC(=O)C(Cc1ccccc1)Nc1nc(NC(Cc2ccccc2)C(=O)OC)nc(N2CCOCC2)n1 (centres undefined)
Label value: 0 (no)

Compound: CCc1ccc(SC2c3ccc(N(CC)CC)cc3Oc3nc(N)c(C#N)c(N)c32)cc1 (centres undefined)
Label value: 1 (yes)

Compound: NS(=O)(=O)c1ccc(Nc2cc(-c3ccccc3)nc(SCC(=O)c3ccccc3)n2)cc1
Label value: 0 (no)

Compound: COc1cc(-c2nnc(SCc3ccc(O)c4ncccc34)n2-c2ccccc2)cc(OC)c1OC
Label value: 1 (yes)

Compound: NC(N)=Nc1ccc(Oc2cccc(NC(N)=Nc3ccc(Br)cc3)c2)cn1
Label value: 0 (no)

Compound: CCCCNNC(=O)c1ccc(-c2cccc(F)c2F)cc1
Label value: 0 (no)

Compound: COc1ccc(N2C(=O)c3cc(Cl)ccc3NC2SCc2ccccc2)cc1 (centres undefined)
Label value: 0 (no)

Compound: COc1ccc(CCN2C(=O)CSC2=S)cc1
Label value: 0 (no)

Compound: Cn1cc(-c2nc(N)nnc2-c2c[nH]c3ccccc23)c2cc(Br)ccc21
Label value: 0 (no)

Compound: COc1cc(-c2nc(SCCC(C)C)nc(NNC(=O)c3ccncc3)c2C#N)cc(OC)c1OC
Label value: 0 (no)

---

tested on: SNB-75 CNS; assay: NCI-60 one-dose screen, 48 h (100 = growth as untreated, 0 = no growth, -100 = all killed); conditions: 10 µM unless noted
The panel holds about 83,000 compounds, 20% with a hit somewhere; the sample as a whole holds those more often.

Molecule: CCCCCc1ccc(S(=O)(=O)Nc2cccc(-c3csc(NC(=O)CCCCCN4CCN(CCO)CC4)n3)c2)cc1
growth (%): 98.5
--
Molecule: CC(C)(C)c1ccc(C(=O)Nc2sc3c(c2C(N)=O)CCC(O)C3)cc1 (stereo not given)
growth (%): 98.1
--
Molecule: C=C(C=O)[C@@H]1CC[C@]2(C)[C@H](C(=O)C=C3[C@H]4C[C@](C)(C(=O)OC)CC[C@]4(C)CC[C@]32C)[C@@]1(C)CCC#N
growth (%): 66.1
--
Molecule: NC(N)=Nc1ccc(Oc2cccc(NC(N)=Nc3ccc(I)cc3F)c2)cc1
growth (%): 73.2
--
Molecule: O=C(NNc1nc2cc(F)ccc2n2c(CN3CCCC3)ccc12)c1cnccn1
growth (%): 65
--
Molecule: COc1cc(-c2nc(SCCC(C)C)nc(NNC(=O)c3ccncc3)c2C#N)cc(OC)c1OC
growth (%): 27.1
--
Molecule: CC(C)(C)c1ccc(-c2nnc(-c3nc4ccccc4nc3Cl)o2)cc1
growth (%): 96.4
--
Molecule: CCOC(=O)c1c(Nc2ccccc2)nn2c(-c3ccc(OC)cc3)ccnc12
growth (%): 82.7
--
Molecule: CCCn1cnc2c(c1=N)C(c1ccc(F)cc1)c1sc3c(CC)cccc3c1O2 (stereo not given)
growth (%): 14.8
--
Molecule: Cc1ccc(NC(=S)NNC(=S)Nc2ccc(C)cc2)cc1
growth (%): 96.1
--
Molecule: CCOC(=O)c1c(NC(=O)c2ccccc2C(F)(F)F)sc2c1CCC(=O)C2
growth (%): 65.4
--
Molecule: COc1ccc(NC(=O)CSc2nnc(-c3ccc4nc(-c5ccccc5)[nH]c4c3)o2)cc1
growth (%): 101
--
Molecule: COc1cc(Cn2cc3c(c2)-c2onc(CN4CCCC4)c2CC3)cc(OC)c1OC
growth (%): 104
--
Molecule: CC(=O)N1C(=S)NC(=O)C1CC(C)C (stereo not given)
growth (%): 103
--
Molecule: CC(=O)C1=C(C)NC(NNC(N)=S)=NC1c1ccccc1 (stereo not given)
growth (%): 41.1
--
Molecule: Cc1ccc(NC(=O)CNc2cc(C(N)=O)cc(F)c2C)c(Cl)c1
growth (%): 48.4
--
Molecule: CC(O)c1cc2ccccc2c(=O)o1 (stereo not given)
growth (%): 110
--
Molecule: NC(=O)c1cccc(C#CCNC[C@H]2C[C@@H](n3ccc4c(Cl)ncnc43)[C@H](O)[C@@H]2O)c1
growth (%): 87.7
--
Molecule: CNC(=O)c1cc(N2CCc3cc(NC(=O)Nc4ccc(Cl)c(C(F)(F)F)c4)ccc32)ccn1
growth (%): 93.3
--
Molecule: N#Cc1c(-c2cccs2)cc(-c2cnccn2)nc1SCC(=O)Nc1ccc(Br)cc1
growth (%): 50.6

---

tested on: KM12 colon; assay: NCI-60 one-dose screen, 48 h; conditions: 10 µM unless noted
Compounds without any hit were thinned out: in the full panel of roughly 83,000, 20% have a hit. Calls of active or inactive are those of the source. How the source made its calls: active means growth percent below 10; inactive means the rest.
Outcomes: y for active, n for inactive

Compound: COc1ccccc1NC1=C(Cl)C(=O)c2nc(C)ccc2C1=O
Label value: n
--
Compound: C#Cc1nc(/C=C/C(=O)c2nccn2C)cs1
Label value: y
--
Compound: O=C(CCC(=O)N1CCOCC1)OCCCCCCSc1ccc([N+](=O)[O-])c2nonc12
Label value: y
--
Compound: COc1ccc(NC2=C(Cl)C(=O)c3nc(C)ccc3C2=O)cc1OC
Label value: n
--
Compound: CC(=O)C1=C(C)NC(NN)=NC1c1cccc(Cl)c1 (stereo not given)
Label value: n
--
Compound: CS(=O)(=O)Nc1cc(-c2ccc3ncc(C#N)c(NCc4ccccc4F)c3c2)cnc1Cl
Label value: n
--
Compound: CN1CCN(Cc2ccc(NC(=O)c3cncc(C#Cc4cnn5cccnc45)c3)cc2C(F)(F)F)CC1
Label value: y
--
Compound: Cc1nc2ncc(-c3ccc4ncnc(NCc5ccccc5)c4c3)cc2[nH]1
Label value: n
--
Compound: CCCn1cnc2c(c1=N)C(c1ccc(F)cc1)c1sc3c(C)cccc3c1O2 (stereo not given)
Label value: n
--
Compound: COc1cccc(O)c1/C=C(/C)c1ccc2c(OC)cccc2[o+]1
Label value: n
